# target: various mutants of kinase EGFR (BaF3 cell lines stably transfected with kinase) (Homo sapiens, UniProt P00533, T790M/C797S, form not given)
# Construct: other: BaF3 cells stably transfected with EGFR Δ19Del/T790M/C797S; MTS, 48; other: BaF3 cell line stably transfected with EGFR Δ19Del/T790M/C7
# Sequence (P00533 with tags, fused parts or gaps DEL746-750/T790M/C797S, form open): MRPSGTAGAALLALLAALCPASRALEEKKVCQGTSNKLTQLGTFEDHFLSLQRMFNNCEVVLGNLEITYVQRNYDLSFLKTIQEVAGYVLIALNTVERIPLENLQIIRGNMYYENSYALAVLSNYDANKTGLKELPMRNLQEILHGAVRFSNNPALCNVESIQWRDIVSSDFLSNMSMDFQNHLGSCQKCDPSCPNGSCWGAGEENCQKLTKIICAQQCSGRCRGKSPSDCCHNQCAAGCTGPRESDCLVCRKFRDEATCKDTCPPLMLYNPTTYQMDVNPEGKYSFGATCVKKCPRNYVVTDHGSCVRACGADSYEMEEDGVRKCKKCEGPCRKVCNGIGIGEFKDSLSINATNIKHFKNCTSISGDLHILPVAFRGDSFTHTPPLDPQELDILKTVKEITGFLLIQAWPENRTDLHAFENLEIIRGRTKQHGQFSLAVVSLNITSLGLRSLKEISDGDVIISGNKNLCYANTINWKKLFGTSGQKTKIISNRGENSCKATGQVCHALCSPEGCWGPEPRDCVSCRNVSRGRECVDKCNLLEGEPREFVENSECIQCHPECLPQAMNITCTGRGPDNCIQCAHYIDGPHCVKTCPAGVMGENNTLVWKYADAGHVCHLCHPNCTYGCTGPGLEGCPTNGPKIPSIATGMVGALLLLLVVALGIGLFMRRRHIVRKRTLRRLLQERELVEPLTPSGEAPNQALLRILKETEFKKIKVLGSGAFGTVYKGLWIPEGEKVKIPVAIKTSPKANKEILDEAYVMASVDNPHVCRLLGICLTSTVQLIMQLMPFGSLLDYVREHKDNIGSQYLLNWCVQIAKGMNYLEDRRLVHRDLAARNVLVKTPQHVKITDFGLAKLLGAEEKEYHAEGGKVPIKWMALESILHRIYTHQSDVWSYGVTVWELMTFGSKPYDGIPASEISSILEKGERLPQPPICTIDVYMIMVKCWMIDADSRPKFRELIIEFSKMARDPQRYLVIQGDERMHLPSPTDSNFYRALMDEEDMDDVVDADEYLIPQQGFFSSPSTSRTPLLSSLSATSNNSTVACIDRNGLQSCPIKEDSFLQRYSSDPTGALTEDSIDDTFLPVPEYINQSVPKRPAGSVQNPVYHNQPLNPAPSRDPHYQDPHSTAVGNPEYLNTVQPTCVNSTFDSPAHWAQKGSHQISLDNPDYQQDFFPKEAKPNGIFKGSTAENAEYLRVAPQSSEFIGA
# experimental.details: Growth inhibitory activity of compounds on BaF3 cell lines stably transfected with kinase (MTS, 48 h)
# Format: cell-based
# condition.info: BaF3 cells stably transfected with EGFR Δ19Del/T790M/C797S, read-out: IC50, growth inhibition, Δ19Del/T790M/C797S
pIC50: −log10 of the molar value.
endpoint: pIC50

molecule | pIC50
COc1cc(N2CCC(N(C)C)CC2)c(C)cc1Nc1ncc([N+](=O)[O-])c(Nc2ccc3nccnc3c2N(C)S(C)(=O)=O)n1 [Compound I-192] | ≥ 7.30
CCc1cc(Nc2ncc(C)c(Nc3ccc4nccnc4c3N(C)S(C)(=O)=O)n2)c(OC)cc1N1CCC(N(C)C)CC1 [Compound I-279] | ≥ 7.30
CCc1cc(Nc2ncc([N+](=O)[O-])c(Nc3ccc4nccnc4c3N(C)S(C)(=O)=O)n2)c(OC)cc1N1CCC(N(C)C)C1 (stereo not shown) [Compound I-196] | ≥ 7.30
CCc1cc(Nc2ncc(F)c(Nc3ccc4nccnc4c3N(C)S(C)(=O)=O)n2)c(OC)cc1N1CCC(N(C)C)CC1 [Compound I-184] | ≥ 7.30
CCc1cc(Nc2ncc(Br)c(Nc3ccc4nccnc4c3N(C)S(C)(=O)=O)n2)c(OC)cc1N1CCC(N(C)C)CC1 [Compound I-16] | ≥ 7.30

Entry CN1CCc2cc(F)c(Nc3ncc(Br)c(Nc4ccc5nccnc5c4N(C)S(C)(=O)=O)n3)cc2C1 [Compound I-87] ; pIC50 = ≥ 7.30

* * *

# target: various mutants of kinase EGFR (BaF3 cell lines stably transfected with kinase) (Homo sapiens, UniProt P00533, T790M, form not given)
# Construct: other: BaF3 cells stably transfected with EGFR Δ19Del/T790M; MTS, 48 h; other: BaF3 cell line stably transfected with EGFR Δ19Del/T790M; MTS, 48
# Sequence (P00533 with tags, fused parts or gaps DEL746-750/T790M, form open): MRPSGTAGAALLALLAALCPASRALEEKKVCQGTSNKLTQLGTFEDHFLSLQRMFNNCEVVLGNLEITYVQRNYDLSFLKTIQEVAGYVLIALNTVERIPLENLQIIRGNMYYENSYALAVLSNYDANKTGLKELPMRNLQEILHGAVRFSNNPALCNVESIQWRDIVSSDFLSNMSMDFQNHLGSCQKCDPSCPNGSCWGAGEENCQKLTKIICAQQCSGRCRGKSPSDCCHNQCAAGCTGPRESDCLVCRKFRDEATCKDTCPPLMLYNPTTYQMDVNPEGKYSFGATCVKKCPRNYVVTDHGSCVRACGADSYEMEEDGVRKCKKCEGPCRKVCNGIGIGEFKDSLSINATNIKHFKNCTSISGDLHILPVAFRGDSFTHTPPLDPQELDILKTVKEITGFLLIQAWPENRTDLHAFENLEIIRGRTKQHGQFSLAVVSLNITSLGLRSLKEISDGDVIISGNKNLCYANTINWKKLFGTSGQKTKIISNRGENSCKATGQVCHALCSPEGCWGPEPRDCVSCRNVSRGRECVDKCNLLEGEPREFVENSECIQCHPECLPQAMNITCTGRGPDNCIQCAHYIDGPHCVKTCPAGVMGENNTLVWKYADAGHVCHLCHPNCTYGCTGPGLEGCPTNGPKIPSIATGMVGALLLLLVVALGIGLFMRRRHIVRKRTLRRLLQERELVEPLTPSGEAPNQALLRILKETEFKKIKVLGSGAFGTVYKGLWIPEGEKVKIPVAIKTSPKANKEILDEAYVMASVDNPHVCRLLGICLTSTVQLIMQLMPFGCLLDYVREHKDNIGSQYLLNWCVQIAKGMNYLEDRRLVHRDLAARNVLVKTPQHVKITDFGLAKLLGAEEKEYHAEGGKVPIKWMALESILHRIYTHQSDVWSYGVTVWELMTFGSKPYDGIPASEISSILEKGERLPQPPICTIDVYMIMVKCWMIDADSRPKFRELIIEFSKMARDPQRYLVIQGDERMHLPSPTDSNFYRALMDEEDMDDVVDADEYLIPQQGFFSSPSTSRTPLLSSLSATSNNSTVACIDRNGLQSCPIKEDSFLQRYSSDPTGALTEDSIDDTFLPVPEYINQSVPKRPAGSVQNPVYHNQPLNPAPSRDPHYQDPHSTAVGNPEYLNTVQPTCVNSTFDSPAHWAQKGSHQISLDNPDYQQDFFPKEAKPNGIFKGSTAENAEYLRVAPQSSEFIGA
# experimental.details: Growth inhibitory activity of compounds on BaF3 cell lines stably transfected with kinase (MTS, 48 h)
# Format: cell-based
# condition.info: BaF3 cells stably transfected with EGFR Δ19Del/T790M, read-out: IC50, growth inhibition, Δ19Del/T790M
# Experimental: The activity of compounds against various mutants of kinase EGFR was evaluated by their effect of inhibiting growth of BaF3 cell lines stably transfected with kinase. The specific test method was given as follows: […] 3) Compound test: cells were incubated into a 96-well culture plate, the volume of cytosol was 90 µL, and then 10 µL of the compound at each gradient concentration was added. […] OD values at 490 nm were measured by a microplate reader (VARIOSKAN FLASH, Thermo). […]
endpoint: IC50

# example entries with known answers
compound | test.result
C=Cc1cc(Nc2ncc(Br)c(Nc3ccc4nccnc4c3N(C)S(C)(=O)=O)n2)c(OC(F)(F)F)cc1N1CCC(N2CCN(C)CC2)CC1 [Compound I-9] | ≤ 50 nM
COc1cc(C(=O)N2CCC(N3CCN(C)CC3)CC2)ccc1Nc1ncc(Br)c(Nc2ccc3nccnc3c2N(C)S(C)(=O)=O)n1 [Compound I-48] | 50 to 500 nM
CCc1cc(Nc2ncc(Br)c(Nc3ccc4nccnc4c3N(C)S(=O)(=O)C(C)C)n2)c(OC)cc1N1CCC(N2CCN(C)CC2)CC1 [Compound I-135] | ≤ 50 nM
CCc1cc(Nc2ncc(Cl)c(Nc3ccc4nccnc4c3N(C)S(=O)(=O)C3CC3)n2)c(OC)cc1N1CCC(N(C)C)C1 (centres unmarked) [Compound I-123] | 50 to 500 nM
CCc1cc(Nc2ncc(F)c(Nc3ccc4nccnc4c3N(C)S(C)(=O)=O)n2)c(OC)cc1N1CCC(N2CCN(C)CC2)CC1 [Compound I-26] | ≤ 50 nM

Entry COc1cc(N2CCC(N3CCN(C)CC3)CC2)c(CC2CC2)cc1Nc1ncc(Br)c(Nc2ccc3nccnc3c2N(C)S(=O)(=O)C(F)(F)F)n1 [Compound I-259] ; IC50 = 500 to 2500 nM

Entry CCc1cc(Nc2ncc(Br)c(Nc3ccc4nccnc4c3N(C)S(C)(=O)=O)n2)c(OC)nc1N1CCC(N2CCN(C)CC2)CC1 [Compound I-6] ; IC50 = ≤ 50 nM

Entry CCc1cc(Nc2ncc(OC)c(Nc3ccc4nccnc4c3N(C)S(C)(=O)=O)n2)c(OC)cc1N1CCC(N(C)C)CC1 [Compound I-282] ; IC50 = ≤ 50 nM

Entry CCc1cc(Nc2ncc(Cl)c(Nc3ccc4nccnc4c3N(C)S(=O)(=O)CC)n2)c(OC)cc1N1CCC(N(C)C)CC1 [Compound I-117] ; IC50 = ≤ 50 nM

Entry CCc1cc(Nc2ncc(Cl)c(Nc3ccc4nccnc4c3N(C)S(=O)(=O)C3CC3)n2)c(OC)cc1N1CCC(N(C)C)CC1 [Compound I-122] ; IC50 = ≤ 50 nM

Entry COc1nc(N2CCC(N3CCN(C)CC3)CC2)ccc1Nc1ncc(F)c(Nc2ccc3nccnc3c2N(C)S(C)(=O)=O)n1 [Compound I-175] ; IC50 = 500 to 2500 nM

Entry COc1cc(N2CCC(N(C)C)C2)c(C)cc1Nc1ncc([N+](=O)[O-])c(Nc2ccc3nccnc3c2N(C)S(C)(=O)=O)n1 (centres unmarked) [Compound I-195] ; IC50 = 50 to 500 nM

* * *

# target: various mutants of kinase EGFR (BaF3 cell lines stably transfected with kinase) (Homo sapiens, UniProt P00533)
# Construct: other: BaF3 cells stably transfected with EGFR Δ19Del; MTS, 48 h; other: BaF3 cell line stably transfected with EGFR Δ19Del
# Sequence (P00533 with tags, fused parts or gaps DEL746-750): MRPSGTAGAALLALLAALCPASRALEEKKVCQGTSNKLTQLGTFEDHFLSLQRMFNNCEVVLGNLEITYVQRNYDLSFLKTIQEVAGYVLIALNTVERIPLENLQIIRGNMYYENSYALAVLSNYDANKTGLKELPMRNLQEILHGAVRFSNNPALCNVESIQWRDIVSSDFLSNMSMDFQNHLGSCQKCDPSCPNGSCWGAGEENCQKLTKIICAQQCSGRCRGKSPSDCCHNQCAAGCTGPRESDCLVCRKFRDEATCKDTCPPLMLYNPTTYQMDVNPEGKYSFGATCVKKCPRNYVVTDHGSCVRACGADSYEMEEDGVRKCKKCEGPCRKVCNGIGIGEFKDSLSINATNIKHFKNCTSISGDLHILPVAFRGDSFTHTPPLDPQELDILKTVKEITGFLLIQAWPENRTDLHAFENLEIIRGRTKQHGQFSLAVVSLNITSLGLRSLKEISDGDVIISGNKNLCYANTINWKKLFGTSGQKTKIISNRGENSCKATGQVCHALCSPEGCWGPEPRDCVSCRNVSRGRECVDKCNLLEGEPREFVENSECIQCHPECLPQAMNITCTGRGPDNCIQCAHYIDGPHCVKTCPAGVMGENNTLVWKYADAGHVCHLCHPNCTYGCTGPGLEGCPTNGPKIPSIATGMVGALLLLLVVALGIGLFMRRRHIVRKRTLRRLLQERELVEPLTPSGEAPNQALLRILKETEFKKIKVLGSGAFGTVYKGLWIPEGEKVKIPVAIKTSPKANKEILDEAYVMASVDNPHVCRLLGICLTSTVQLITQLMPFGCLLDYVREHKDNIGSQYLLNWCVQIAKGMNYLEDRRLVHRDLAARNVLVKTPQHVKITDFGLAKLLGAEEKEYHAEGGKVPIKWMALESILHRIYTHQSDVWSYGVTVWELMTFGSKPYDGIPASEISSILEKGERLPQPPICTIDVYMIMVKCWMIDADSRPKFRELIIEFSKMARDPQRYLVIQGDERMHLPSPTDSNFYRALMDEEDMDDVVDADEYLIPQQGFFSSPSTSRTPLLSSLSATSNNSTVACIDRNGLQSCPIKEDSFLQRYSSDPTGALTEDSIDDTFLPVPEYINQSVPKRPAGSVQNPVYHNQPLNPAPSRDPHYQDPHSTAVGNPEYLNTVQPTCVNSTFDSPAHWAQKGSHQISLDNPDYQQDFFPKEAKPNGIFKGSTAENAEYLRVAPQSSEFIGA
# experimental.details: Growth inhibitory activity of compounds on BaF3 cell lines stably transfected with kinase (MTS, 48 h)
# Assay type: cell-based
# condition.info: BaF3 cells stably transfected with EGFR Δ19Del, read-out: IC50, growth inhibition, Δ19Del
IC50 by entry:

# example entries with known answers
molecule | IC50
COc1cc(N2CCC(N3CCN(C)CC3)CC2)c(Cc2ccccc2)cc1Nc1ncc(C(F)(F)F)c(Nc2ccc3nccnc3c2N(C)S(C)(=O)=O)n1 | 500 to 2500 nM
CCc1cc(Nc2ncc(Cl)c(Nc3ccc4nccnc4c3N(C)S(C)(=O)=O)n2)c(OC)cc1N1CCC(N(C)C)CC1 | ≤ 50 nM
COc1cc(N2CCC(N3CCN(C)CC3)CC2)c(CC2CC2)cc1Nc1ncc(Cl)c(Nc2ccc3nccnc3c2N(C)S(=O)(=O)C(C)C)n1 | 50 to 500 nM
COc1cc(N2CCC(N3CCN(C)CC3)CC2)c(C)cc1Nc1ncc([N+](=O)[O-])c(Nc2ccc3nccnc3c2N(C)S(C)(=O)=O)n1 | 50 to 500 nM
COc1cc(N2CCC(N3CCN(C)CC3)CC2)c(C)cc1Nc1ncc(Br)c(Nc2ccc3nccnc3c2N(C)S(=O)(=O)C(C)C)n1 | 50 to 500 nM
C=Cc1cc(Nc2ncc(Cl)c(Nc3ccc4nccnc4c3N(C)S(C)(=O)=O)n2)c(OC(F)(F)F)cc1N1CCC(N2CCN(C)CC2)CC1 | ≤ 50 nM
CN1CCN(Cc2cccc(Nc3ncc(Br)c(Nc4ccc5nccnc5c4N(C)S(C)(=O)=O)n3)c2)CC1 | 50 to 500 nM
CCc1cc(Nc2ncc(Cl)c(Nc3ccc4nccnc4c3N(C3CC3)S(C)(=O)=O)n2)c(OC)cc1N1CCC(N(C)C)CC1 | ≤ 50 nM
CN1CCc2cc(F)c(Nc3ncc(Br)c(Nc4ccc5nccnc5c4N(C)S(C)(=O)=O)n3)cc2C1 | ≤ 50 nM
CCN(c1c(Nc2nc(Nc3ccc(N4CCC(N5CCN(C)CC5)CC4)nc3OC)ncc2Cl)ccc2nccnc12)S(C)(=O)=O | 50 to 500 nM

Entry CCc1cc(Nc2ncc(Br)c(Nc3ccc4nccnc4c3N(C)S(C)(=O)=O)n2)c(OC)cc1N1CCC(N(C)C)C1 (stereo not shown) ; IC50 = ≤ 50 nM

Entry CCc1cc(Nc2ncc(F)c(Nc3ccc4nccnc4c3N(C)S(C)(=O)=O)n2)c(OC(F)(F)F)cc1N1CCC(N2CCN(C)CC2)CC1 ; IC50 = 50 to 500 nM

Entry CCc1cc(Nc2ncc(Cl)c(Nc3ccc4nccnc4c3N(CC)S(C)(=O)=O)n2)c(OC)cc1N1CCC(N(C)C)C1 (stereo not shown) ; IC50 = 50 to 500 nM

* * *

# target: various mutants of kinase EGFR (BaF3 cell lines stably transfected with kinase) (Homo sapiens, UniProt P00533, C797S/L858R/T790M)
# Construct: expressed in transfected cells; host or cells: BaF3
# Sequence (P00533 25-1210 T790M/C797S/L858R): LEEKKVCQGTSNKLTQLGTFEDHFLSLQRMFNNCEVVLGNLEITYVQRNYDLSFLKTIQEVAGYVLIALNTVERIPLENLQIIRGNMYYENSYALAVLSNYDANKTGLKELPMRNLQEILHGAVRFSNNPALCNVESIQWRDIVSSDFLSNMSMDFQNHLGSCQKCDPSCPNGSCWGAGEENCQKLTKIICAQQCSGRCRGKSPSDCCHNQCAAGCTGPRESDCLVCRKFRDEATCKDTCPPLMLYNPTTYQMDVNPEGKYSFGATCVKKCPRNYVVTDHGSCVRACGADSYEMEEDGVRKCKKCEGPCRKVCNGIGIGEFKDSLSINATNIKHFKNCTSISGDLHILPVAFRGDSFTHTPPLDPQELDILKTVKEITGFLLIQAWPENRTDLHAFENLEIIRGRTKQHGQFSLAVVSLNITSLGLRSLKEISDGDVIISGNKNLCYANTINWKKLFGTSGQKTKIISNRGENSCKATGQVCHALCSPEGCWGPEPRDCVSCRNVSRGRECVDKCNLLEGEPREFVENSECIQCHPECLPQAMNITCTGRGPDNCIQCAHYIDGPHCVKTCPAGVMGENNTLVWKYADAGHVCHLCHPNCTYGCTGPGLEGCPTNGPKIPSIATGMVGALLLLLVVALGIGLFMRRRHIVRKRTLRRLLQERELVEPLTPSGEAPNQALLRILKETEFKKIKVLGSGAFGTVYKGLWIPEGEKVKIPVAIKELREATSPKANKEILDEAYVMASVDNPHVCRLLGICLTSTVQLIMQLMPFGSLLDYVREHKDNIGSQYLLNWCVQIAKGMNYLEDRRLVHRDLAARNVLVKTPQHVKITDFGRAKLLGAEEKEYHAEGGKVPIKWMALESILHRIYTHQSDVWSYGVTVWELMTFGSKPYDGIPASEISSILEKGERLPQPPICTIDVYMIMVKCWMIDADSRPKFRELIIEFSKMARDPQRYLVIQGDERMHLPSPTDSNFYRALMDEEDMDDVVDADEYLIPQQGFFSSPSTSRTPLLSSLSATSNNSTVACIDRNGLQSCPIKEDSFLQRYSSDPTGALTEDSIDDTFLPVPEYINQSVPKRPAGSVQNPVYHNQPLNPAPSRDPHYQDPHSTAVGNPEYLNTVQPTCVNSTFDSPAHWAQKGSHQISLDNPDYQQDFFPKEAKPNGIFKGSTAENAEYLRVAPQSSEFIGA
# experimental.details: Growth inhibitory activity of compounds on BaF3 cell lines stably transfected with kinase (MTS, 48 h)
# Assay type: cell-based
# condition.info: BaF3 cells stably transfected with EGFR L858R/T790M/C797S, read-out: IC50, growth inhibition, L858R/T790M/C797S
endpoint: IC50

# example entries with known answers
compound | test.result
CCc1cc(Nc2ncc(Cl)c(Nc3ccc4nccnc4c3N(C)S(=O)(=O)C(C)C)n2)c(OC)cc1N1CCC(N(C)C)C1 (stereo not shown) | 50 to 500 nM
CN1CCc2cc(OC(F)(F)F)c(Nc3ncc(Br)c(Nc4ccc5nccnc5c4N(C)S(C)(=O)=O)n3)cc2C1 | 50 to 500 nM
CN1CCN(C2CCN(c3ccc(Nc4ncc(C(F)(F)F)c(Nc5ccc6nccnc6c5N(C)S(C)(=O)=O)n4)c(OC(F)(F)F)c3)CC2)CC1 | 50 to 500 nM
CCOc1cc(N2CCN(C)CC2)ccc1Nc1ncc(Br)c(Nc2ccc3nccnc3c2N(C)S(C)(=O)=O)n1 | ≤ 50 nM
CCc1cc(Nc2ncc([N+](=O)[O-])c(Nc3ccc4nccnc4c3N(C)S(C)(=O)=O)n2)c(OC)cc1N1CCC(N(C)C)CC1 | ≤ 50 nM
Cc1cc2c(cc1Nc1ncc(Br)c(Nc3ccc4nccnc4c3N(C)S(C)(=O)=O)n1)CN(C)CC2 | ≤ 50 nM
CCc1cc(Nc2ncc(Cl)c(Nc3ccc4nccnc4c3N(CC)S(C)(=O)=O)n2)c(OC)nc1N1CCC(N2CCN(C)CC2)CC1 | ≤ 50 nM
COc1cc(N2CCC(N3CCN(C)CC3)CC2)c(C(C)C)cc1Nc1ncc(C2CC2)c(Nc2ccc3nccnc3c2N(C)S(C)(=O)=O)n1 | 500 to 2500 nM

Entry CCN(c1c(Nc2nc(Nc3cc(C)c(N4CCN(C)CC4)cc3OC)ncc2Br)ccc2nccnc12)S(C)(=O)=O ; IC50 = ≤ 50 nM

Entry CN(c1c(Nc2nc(Nc3cnn(C)c3)ncc2Br)ccc2nccnc12)S(C)(=O)=O ; IC50 = ≤ 50 nM

Entry COc1cc(N2CCC(N3CCN(C)CC3)CC2)c(CC2CC2)cc1Nc1ncc(Cl)c(Nc2ccc3nccnc3c2N(C)S(=O)(=O)C(F)(F)F)n1 ; IC50 = 50 to 500 nM

Entry CCc1cc(Nc2ncc(C3CC3)c(Nc3ccc4nccnc4c3N(C)S(C)(=O)=O)n2)c(OC)cc1N1CCC(N2CCN(C)CC2)CC1 ; IC50 = ≤ 50 nM

Entry CCc1cc(Nc2ncc(Br)c(Nc3ccc4nccnc4c3N(CC)S(C)(=O)=O)n2)c(OC)nc1N1CCC(N2CCN(C)CC2)CC1 ; IC50 = ≤ 50 nM
